Every entry's value here was drawn from patent US8383651B2.

- Assay system: human CB1R (Homo sapiens, UniProt P21554)
- Construct: host or cells: CHO cells
- Sequence (P21554 whole entry): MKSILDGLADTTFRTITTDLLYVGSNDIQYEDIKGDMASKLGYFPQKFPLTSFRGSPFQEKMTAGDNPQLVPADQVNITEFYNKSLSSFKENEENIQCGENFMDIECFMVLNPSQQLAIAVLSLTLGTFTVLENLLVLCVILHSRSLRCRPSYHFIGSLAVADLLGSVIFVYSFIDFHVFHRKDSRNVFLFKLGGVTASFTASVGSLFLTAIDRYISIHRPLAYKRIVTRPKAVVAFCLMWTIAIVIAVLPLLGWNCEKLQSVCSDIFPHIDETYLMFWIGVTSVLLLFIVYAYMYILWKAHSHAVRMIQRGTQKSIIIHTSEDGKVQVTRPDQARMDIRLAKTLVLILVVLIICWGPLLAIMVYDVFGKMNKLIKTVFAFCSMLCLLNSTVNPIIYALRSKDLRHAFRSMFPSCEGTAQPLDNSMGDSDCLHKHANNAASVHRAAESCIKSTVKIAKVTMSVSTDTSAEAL
- Test summary: CB1R mediated modulation of cAMP synthesis
- Format: cell-based
- Measurement conditions: CHO cells expressing human CB1R; inhibition of forskolin-stimulated cAMP synthesis; read-out: CB1 EC50
Endpoint: EC50

Recorded EC50, per entry:
[
  {
    "Chem smiles": "CC(C)(C(=O)Nc1nnc(-c2nccs2)[nH]1)S(=O)(=O)C1CCOCC1",
    "EC50": "> 50 µM"
  },
  {
    "Chem smiles": "Cc1cc(-c2n[nH]c(NC(=O)C(C)(C)S(=O)(=O)C3CCOCC3)n2)n(C)n1",
    "EC50": "> 50 µM"
  }
]

Then there is this compound:
### Prompt Can you look up the measured EC50 of `Cc1cc(-c2n[nH]c(NC(=O)C(C)(C)S(=O)(=O)C3CCOCC3)n2)no1` for me?
### Response > 50 µM

====

- Assay system: human CB1R (Homo sapiens)
- Construct: host or cells: CHO cells
- Test summary: CB1R mediated modulation of cAMP synthesis
- Format: cell-based
- Measurement conditions: CB1 EC50, CHO cells expressing human CB1R; inhibition of forskolin-stimulated cAMP synthesis
- Procedure: C. CB1R Mediated Modulation of cAMP Synthesis: Compounds of the invention are evaluated for their CB1 agonist or inverse agonistic activity in accordance with the following experimental method. CHO cells expressing human CB1R (Euroscreen) are plated at a density of 5000 cells per well in 384 well plates and incubated overnight at 37° C. […] Cells are lysed and the cAMP concentration is measured using DiscoverX-XS cAMP kit, following the manufacturer's protocol. […] EC50 of agonists are calculated as follows. […]
pEC50: −log10 of the molar value.
Here, each record is paired with measured pEC50 data.

[
  {
    "Compound": "Cc1ncc(C2(c3cc(NC(=O)C(C)(C)S(=O)(=O)C4CCOCC4)on3)CCCC2)o1 [drawing 89]",
    "pEC50": 4.52
  },
  {
    "Compound": "Cc1cc(-c2nnc(NC(=O)C(C)(C)S(=O)(=O)C3CCCCC3)[nH]2)on1",
    "pEC50": "< 4.70"
  }
]

Consider the additional compound presented here.
### Prompt Kindly state the measured pEC50 obtained for `Cc1ncc(C(C)(C)c2cc(NC(=O)C(C)(C)S(=O)(=O)C3CCOCC3)on2)s1` with human CB1R (Homo sapiens).
### Response < 4.30

====

- Assay system: human CB2R (Homo sapiens, UniProt P34972)
- Construct: host or cells: CHO cells
- Sequence (P34972 whole entry): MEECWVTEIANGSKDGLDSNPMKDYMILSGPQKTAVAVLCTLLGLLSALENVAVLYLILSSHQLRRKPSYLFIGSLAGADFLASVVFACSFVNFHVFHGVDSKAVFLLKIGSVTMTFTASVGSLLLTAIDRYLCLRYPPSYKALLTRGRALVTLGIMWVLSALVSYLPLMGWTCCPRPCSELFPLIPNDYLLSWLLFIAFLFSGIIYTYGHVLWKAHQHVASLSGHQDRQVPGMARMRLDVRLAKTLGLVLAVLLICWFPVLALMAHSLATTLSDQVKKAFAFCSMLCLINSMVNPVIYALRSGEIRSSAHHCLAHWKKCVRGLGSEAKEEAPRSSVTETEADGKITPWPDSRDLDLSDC
- Test summary: CB2R mediated modulation of cAMP synthesis
- Format: cell-based
Below, each entry is listed alongside its reported log10 EC50.
Field: value | Transform: log10 | Quantity: EC50 | Unit: nM

A selection of reference data follows.
[
  {
    "Molecule": "Cc1cc(-c2nnc(NC(=O)C(C)(C)S(=O)(=O)CCC(C)C)[nH]2)no1",
    "log10 EC50": 1.57
  },
  {
    "Molecule": "Cc1ncc(C(C)(C)c2cc(NC(=O)C(C)(C)S(=O)(=O)C3CCOCC3)on2)o1",
    "log10 EC50": 0.83
  },
  {
    "Molecule": "Cc1cc(-c2nnc(NC(=O)C(C)(C)S(=O)(=O)C3CCCCC3)[nH]2)on1",
    "log10 EC50": 1.74
  },
  {
    "Molecule": "CCc1ncc(C(C)(C)c2cc(NC(=O)C(C)(C)S(=O)(=O)C3CCN(S(C)(=O)=O)CC3)on2)o1",
    "log10 EC50": 1.40
  },
  {
    "Molecule": "CC(C)(c1cc(NC(=O)C(C)(C)S(=O)(=O)C2CCOCC2)on1)c1cnc(-c2ccccc2)o1",
    "log10 EC50": 1.32
  }
]

### Prompt Give the measured log10 EC50 of `CC(C)(C(=O)Nc1nc(-c2ncco2)n[nH]1)S(=O)(=O)C1CCOCC1` .
### Response 1.92

### Prompt Look at this molecule and give its reported log10 EC50. Cc1ncc(C2(c3cc(NC(=O)C(C)(C)S(=O)(=O)C4CCOCC4)on3)CCCC2)o1 [drawing 84]
### Response 0.66

### Prompt // returns reported log10 EC50 for input `Cc1ncc(C(C)(C)c2cc(NC(=O)C(C)(C)S(=O)(=O)C3CCN(S(C)(=O)=O)CC3)on2)s1`
### Response 1.45

### Prompt Which value of log10 EC50 has been reported for `Cc1nnc(C(C)(C)c2cc(NC(=O)C(C)(C)S(=O)(=O)CCCC(F)(F)F)on2)o1` in the records?
### Response 1.26

### Prompt // lookup log10 EC50 for `Cc1nnc(C(C)(C)c2cc(NC(=O)C(C)(C)S(=O)(=O)c3ccc(F)cc3)on2)o1`
### Response 1.99

### Prompt Look up log10 EC50: `Cc1ncc(C(C)(C)c2cc(NC(=O)C(C)(C)S(=O)(=O)C3CCOCC3)on2)s1`
### Response 0.53
